- Tested on: Aspergillus niger
- TEST DESCRIPTION: Antifungal activity against Aspergillus niger at 12.5 ug/ml after 72 hrs by well plate method
- Assay type: functional
- RUN PARAMETERS: read-out: DIZ
Attribute: zone of inhibition at 12.5 µg/mL
REPORTED ENDPOINT: zone of inhibition at 12.5 µg/mL

SMILES ENTRY: Fc1ccc(-c2cc(-c3nc4ccc(Cl)cc4[nH]3)c3ccccc3n2)cc1
TEST VALUE: 18 mm
//
SMILES ENTRY: COc1ccc2nc(-c3cc(-c4ccc(F)cc4)nc4ccccc34)[nH]c2c1
TEST VALUE: 12 mm
//
SMILES ENTRY: Fc1ccc(-c2cc(-c3nc4ccccc4[nH]3)c3ccccc3n2)cc1
TEST VALUE: 12 mm
